# tested_system: GABA-A receptor; anion channel (Rattus norvegicus) (UniProt O09028+P15431+P18506+P18508+P19969+P20236+P23574+P23576+P28471+P28473+P30191+P62813+P63079+P63138+Q91ZM7+Q9ES14)
# protocol_summary: Ability to inhibit [35S]t-butyl-bicyclophosphorothionate binding by 50% to rat whole brain membrane
# Format: tissue-based
Property: TBPS IC50; scope: individual compounds
Numeric only. Scale: µM

Solved entries (count: 3):
- compound: "CCCC(C(=O)Oc1c(OC)cccc1OC)N(CCOC)CCOC (stereo unspecified)"
  property_name: "TBPS IC50"
  result_number: 7.7
- compound: "CCCCC(C(=O)Oc1c(OC)cccc1OC)N(CCOC)CCOC (stereo unspecified)"
  property_name: "TBPS IC50"
  result_number: 1.6
- compound: "COc1cccc(OC)c1OC(=O)[C@@H](C)N1CCc2ccccc2C1"
  property_name: "TBPS IC50"
  result_number: 3.3

-- ask Which TBPS IC50 is listed for COc1cccc(OC)c1OC(=O)C(C)N1CCc2ccccc2C1 (stereo unspecified) ?
-- reply 4.8

-- ask Please answer likewise for CC[C@H](C(=O)Oc1c(OC)cc(C)cc1OC)N(CCOC)CCOC
-- reply 16
